System: Candida albicans
assayExplanation: Antifungal activity against Candida albicans
Type: functional
measuredProperty: MIC (µg/mL)

testSmiles	tgt	MIC [µg/mL]
CN[C@@](C)(CO[C@H]1[C@H](n2ncnc2-c2ccncc2)C[C@@]23COC[C@]1(C)[C@@H]2CC[C@H]1C3=CC[C@@]2(C)[C@H](C(=O)O)[C@@](C)([C@H](C)C(C)C)CC[C@]12C)C(C)(C)C	Candida albicans	0.03

I. CC(C)[C@@H](C)[C@@]1(C)CC[C@]2(C)[C@H]3CC[C@@H]4[C@@]5(COC[C@@]4(C)[C@@H](OC[C@@]4(C)CCCN4)[C@H](n4ncnc4-c4ccncc4)C5)C3=CC[C@@]2(C)[C@@H]1C(=O)O
II. CC(C)[C@@H](C)[C@@]1(C)CC[C@]2(C)[C@H]3CC[C@@H]4[C@@]5(COC[C@@]4(C)[C@@H](OC[C@H]4CCCN4)[C@H](n4ncnc4-c4ccncc4)C5)C3=CC[C@@]2(C)[C@@H]1C(=O)O
Request: Select one. Lower MIC: I or II Reply with the label of the item you choose.
Response: I

a. CC(C)[C@@H](C)[C@@]1(C)CC[C@]2(C)[C@H]3CC[C@@H]4[C@@]5(COC[C@@]4(C)[C@@H](OC[C@@H]4CCCN4C)[C@H](n4ncnc4-c4ccncc4)C5)C3=CC[C@@]2(C)[C@@H]1C(=O)O
b. CC(C)[C@@H](C)[C@@]1(C)CC[C@]2(C)[C@H]3CC[C@@H]4[C@@]5(COC[C@@]4(C)[C@@H](OC[C@@]4(C)CCCN4C)[C@H](n4ncnc4-c4ccncc4)C5)C3=CC[C@@]2(C)[C@@H]1C(=O)O
Request: Select one. Lower MIC: a or b Reply with the label of the item you choose.
Response: b

a. CC(C)[C@@H](C)[C@@]1(C)CC[C@]2(C)[C@H]3CC[C@@H]4[C@@]5(COC[C@@]4(C)[C@@H](OC[C@@H]4CCCN4)[C@H](n4ncnc4-c4ccncc4)C5)C3=CC[C@@]2(C)[C@@H]1C(=O)O
b. CC(C)[C@@H](C)[C@@]1(C)CC[C@]2(C)[C@H]3CC[C@@H]4[C@@]5(COC[C@@]4(C)[C@@H](OC[C@H]4CCCN4C)[C@H](n4ncnc4-c4ccncc4)C5)C3=CC[C@@]2(C)[C@@H]1C(=O)O
Request: Compare a and b by numeric MIC and name the larger one. Reply with the label of the item you choose.
Response: a
(a: 1 µg/mL, b: 0.5 µg/mL)

###

Test system: Mus musculus
assayExplanation: Dose normalised AUC in po dosed mouse
Type: ADME, organism-based
testSettings: in vivo
measuredProperty: AUC/dose (µM·kg·h/mg)

1. CC(C)[C@@H](C)[C@@]1(C)CC[C@]2(C)[C@H]3CC[C@@H]4[C@@]5(COC[C@@]4(C)[C@@H](OC[C@@]4(C)CCCN4)[C@H](n4ncnc4-c4ccncc4)C5)C3=CC[C@@]2(C)[C@@H]1C(=O)O
2. CC(C)[C@@H](C)[C@@]1(C)CC[C@]2(C)[C@H]3CC[C@@H]4[C@@]5(COC[C@@]4(C)[C@@H](OC[C@H]4CCCN4)[C@H](n4ncnc4-c4ccncc4)C5)C3=CC[C@@]2(C)[C@@H]1C(=O)O
Request: Compare 1 and 2 by numeric AUC/dose and name the larger one. Reply with the label of the item you choose.
Response: 1

P. CC(C)[C@@H](C)[C@@]1(C)CC[C@]2(C)[C@H]3CC[C@@H]4[C@@]5(COC[C@@]4(C)[C@@H](OC[C@H]4CCCN4C)[C@H](n4ncnc4-c4ccncc4)C5)C3=CC[C@@]2(C)[C@@H]1C(=O)O
Q. CN[C@@](C)(CO[C@H]1[C@H](n2ncnc2-c2ccncc2)C[C@@]23COC[C@]1(C)[C@@H]2CC[C@H]1C3=CC[C@@]2(C)[C@H](C(=O)O)[C@@](C)([C@H](C)C(C)C)CC[C@]12C)C(C)(C)C
Request: Select one. Lower AUC/dose: P or Q Reply with the label of the item you choose.
Response: P
(P: 0.06 µM·kg·h/mg, Q: 0.62 µM·kg·h/mg)

###

compounds and their reported deltalog10CFU
System: Candida albicans
assayExplanation: Antifungal activity against Candida albicans MY1055 infected in DBA/2 mouse assessed as reduction in kidney fungal burden measured per gram of tissue at 12.5 mg/kg, ip bid for 2 days post infection measured after 4 days relative to sham-treated control
Type: functional
testSettings: route intraperitoneal
When you answer, write just the number.

testSmiles	endpointValue
CC(C)[C@@H](C)[C@@]1(C)CC[C@]2(C)[C@H]3CC[C@@H]4[C@@]5(COC[C@@]4(C)[C@@H](OC[C@H]4CCCN4)[C@H](n4ncnc4-c4ccncc4)C5)C3=CC[C@@]2(C)[C@@H]1C(=O)O	-1.69
CC(C)[C@@H](C)[C@@]1(C)CC[C@]2(C)[C@H]3CC[C@@H]4[C@@]5(COC[C@@]4(C)[C@@H](OC[C@@]4(C)CCCN4)[C@H](n4ncnc4-c4ccncc4)C5)C3=CC[C@@]2(C)[C@@H]1C(=O)O	-2.83

Request: Field request: deltalog10CFU | item: "CC(C)[C@@H](C)[C@@]1(C)CC[C@]2(C)[C@H]3CC[C@@H]4[C@@]5(COC[C@@]4(C)[C@@H](OC[C@@H]4CCCN4)[C@H](n4ncnc4-c4ccncc4)C5)C3=CC[C@@]2(C)[C@@H]1C(=O)O"
Response: -2.18

Request: Field request: deltalog10CFU | item: "CN[C@@](C)(CO[C@H]1[C@H](n2ncnc2-c2ccncc2)C[C@@]23COC[C@]1(C)[C@@H]2CC[C@H]1C3=CC[C@@]2(C)[C@H](C(=O)O)[C@@](C)([C@H](C)C(C)C)CC[C@]12C)C(C)(C)C"
Response: -4.37

Request: Field request: deltalog10CFU | item: "CC(C)[C@@H](C)[C@@]1(C)CC[C@]2(C)[C@H]3CC[C@@H]4[C@@]5(COC[C@@]4(C)[C@@H](OC[C@@]4(C)CCCN4C)[C@H](n4ncnc4-c4ccncc4)C5)C3=CC[C@@]2(C)[C@@H]1C(=O)O"
Response: -1.8

Request: Field request: deltalog10CFU | item: "CC(C)[C@@H](C)[C@@]1(C)CC[C@]2(C)[C@H]3CC[C@@H]4[C@@]5(COC[C@@]4(C)[C@@H](OC[C@H]4CCCN4C)[C@H](n4ncnc4-c4ccncc4)C5)C3=CC[C@@]2(C)[C@@H]1C(=O)O"
Response: -1.84

###

Tested on: Candida albicans
assayExplanation: Antifungal activity against Candida albicans MY1055 infected in DBA/2 mouse assessed as reduction in kidney fungal burden measured per gram of tissue at 6.25 mg/kg, po bid for 2 days post infection measured after 4 days relative to sham-treated control
Assay type: functional
measuredProperty: deltalog10CFU
When you answer, write just the number.

Worked examples, 4 molecules total:
testSmiles	deltalog10CFU
CC(C)[C@@H](C)[C@@]1(C)CC[C@]2(C)[C@H]3CC[C@@H]4[C@@]5(COC[C@@]4(C)[C@@H](OC[C@H]4CCCN4C)[C@H](n4ncnc4-c4ccncc4)C5)C3=CC[C@@]2(C)[C@@H]1C(=O)O	-1.22
CN[C@@](C)(CO[C@H]1[C@H](n2ncnc2-c2ccncc2)C[C@@]23COC[C@]1(C)[C@@H]2CC[C@H]1C3=CC[C@@]2(C)[C@H](C(=O)O)[C@@](C)([C@H](C)C(C)C)CC[C@]12C)C(C)(C)C	-2.72
CC(C)[C@@H](C)[C@@]1(C)CC[C@]2(C)[C@H]3CC[C@@H]4[C@@]5(COC[C@@]4(C)[C@@H](OC[C@@]4(C)CCCN4C)[C@H](n4ncnc4-c4ccncc4)C5)C3=CC[C@@]2(C)[C@@H]1C(=O)O	-0.9
CC(C)[C@@H](C)[C@@]1(C)CC[C@]2(C)[C@H]3CC[C@@H]4[C@@]5(COC[C@@]4(C)[C@@H](OC[C@@H]4CCCN4)[C@H](n4ncnc4-c4ccncc4)C5)C3=CC[C@@]2(C)[C@@H]1C(=O)O	-0.4

As a next step, examine the molecule that follows.
Request: Field request: deltalog10CFU | item: "CC(C)[C@@H](C)[C@@]1(C)CC[C@]2(C)[C@H]3CC[C@@H]4[C@@]5(COC[C@@]4(C)[C@@H](OC[C@H]4CCCN4)[C@H](n4ncnc4-c4ccncc4)C5)C3=CC[C@@]2(C)[C@@H]1C(=O)O"
Response: -0.27

###

assayExplanation: Clearance in po dosed mouse
Type: ADME, organism-based
testSettings: in vivo
measuredProperty: clearance (mL/min/kg)

testSmiles	endpointValue
CC(C)[C@@H](C)[C@@]1(C)CC[C@]2(C)[C@H]3CC[C@@H]4[C@@]5(COC[C@@]4(C)[C@@H](OC[C@H]4CCCN4C)[C@H](n4ncnc4-c4ccncc4)C5)C3=CC[C@@]2(C)[C@@H]1C(=O)O	13.1
CC(C)[C@@H](C)[C@@]1(C)CC[C@]2(C)[C@H]3CC[C@@H]4[C@@]5(COC[C@@]4(C)[C@@H](OC[C@H]4CCCN4)[C@H](n4ncnc4-c4ccncc4)C5)C3=CC[C@@]2(C)[C@@H]1C(=O)O	16.3
CC(C)[C@@H](C)[C@@]1(C)CC[C@]2(C)[C@H]3CC[C@@H]4[C@@]5(COC[C@@]4(C)[C@@H](OC[C@@]4(C)CCCN4)[C@H](n4ncnc4-c4ccncc4)C5)C3=CC[C@@]2(C)[C@@H]1C(=O)O	19.2
CN[C@@](C)(CO[C@H]1[C@H](n2ncnc2-c2ccncc2)C[C@@]23COC[C@]1(C)[C@@H]2CC[C@H]1C3=CC[C@@]2(C)[C@H](C(=O)O)[C@@](C)([C@H](C)C(C)C)CC[C@]12C)C(C)(C)C	16
